targetSystem: ABL1 (human), P00519 [Y253F]
protocolSummary: KINOMEscan competition binding

| smilesString | Kd, nM |
| --- | --- |
| COc1cc2ncnc(Oc3cccc(NC(=O)Nc4cc(C(C)(C)C(F)(F)F)on4)c3)c2cc1OC | 3 |

----------
targetSystem: UniProtKB P54764
Sequence (P54764 whole entry, looked up): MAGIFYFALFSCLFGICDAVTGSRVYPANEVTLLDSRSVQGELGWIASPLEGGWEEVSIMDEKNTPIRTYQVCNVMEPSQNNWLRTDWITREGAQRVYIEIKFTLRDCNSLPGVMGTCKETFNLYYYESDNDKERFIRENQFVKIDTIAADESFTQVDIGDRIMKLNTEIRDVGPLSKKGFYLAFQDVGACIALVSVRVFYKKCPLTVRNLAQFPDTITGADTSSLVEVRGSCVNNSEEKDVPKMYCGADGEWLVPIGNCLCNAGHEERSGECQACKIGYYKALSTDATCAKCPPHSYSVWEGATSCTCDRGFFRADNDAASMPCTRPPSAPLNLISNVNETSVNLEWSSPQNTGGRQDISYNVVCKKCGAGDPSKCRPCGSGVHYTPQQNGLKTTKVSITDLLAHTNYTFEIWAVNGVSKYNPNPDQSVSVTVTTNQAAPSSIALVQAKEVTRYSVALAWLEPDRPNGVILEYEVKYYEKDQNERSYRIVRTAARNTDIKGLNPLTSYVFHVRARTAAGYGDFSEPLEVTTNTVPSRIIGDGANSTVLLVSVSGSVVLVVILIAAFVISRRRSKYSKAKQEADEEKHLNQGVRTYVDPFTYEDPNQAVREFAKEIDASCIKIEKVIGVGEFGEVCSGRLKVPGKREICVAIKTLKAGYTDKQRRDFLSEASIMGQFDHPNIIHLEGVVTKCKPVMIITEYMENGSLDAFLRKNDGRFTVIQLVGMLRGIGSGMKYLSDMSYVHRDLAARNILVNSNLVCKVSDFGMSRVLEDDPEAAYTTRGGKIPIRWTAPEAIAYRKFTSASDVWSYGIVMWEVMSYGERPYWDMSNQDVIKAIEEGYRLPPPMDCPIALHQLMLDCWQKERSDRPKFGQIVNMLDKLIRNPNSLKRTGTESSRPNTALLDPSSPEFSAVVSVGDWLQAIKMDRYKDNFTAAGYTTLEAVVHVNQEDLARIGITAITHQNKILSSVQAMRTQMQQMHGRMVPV
pKd: −log10 of the molar value.

| smilesString | pKd |
| --- | --- |
| COc1cc2ncnc(Oc3cccc(NC(=O)Nc4cc(C(C)(C)C(F)(F)F)on4)c3)c2cc1OC | 7.51 |

----------
targetSystem: MST1R (human) (UniProt Q04912)
Sequence (Q04912 whole entry, looked up): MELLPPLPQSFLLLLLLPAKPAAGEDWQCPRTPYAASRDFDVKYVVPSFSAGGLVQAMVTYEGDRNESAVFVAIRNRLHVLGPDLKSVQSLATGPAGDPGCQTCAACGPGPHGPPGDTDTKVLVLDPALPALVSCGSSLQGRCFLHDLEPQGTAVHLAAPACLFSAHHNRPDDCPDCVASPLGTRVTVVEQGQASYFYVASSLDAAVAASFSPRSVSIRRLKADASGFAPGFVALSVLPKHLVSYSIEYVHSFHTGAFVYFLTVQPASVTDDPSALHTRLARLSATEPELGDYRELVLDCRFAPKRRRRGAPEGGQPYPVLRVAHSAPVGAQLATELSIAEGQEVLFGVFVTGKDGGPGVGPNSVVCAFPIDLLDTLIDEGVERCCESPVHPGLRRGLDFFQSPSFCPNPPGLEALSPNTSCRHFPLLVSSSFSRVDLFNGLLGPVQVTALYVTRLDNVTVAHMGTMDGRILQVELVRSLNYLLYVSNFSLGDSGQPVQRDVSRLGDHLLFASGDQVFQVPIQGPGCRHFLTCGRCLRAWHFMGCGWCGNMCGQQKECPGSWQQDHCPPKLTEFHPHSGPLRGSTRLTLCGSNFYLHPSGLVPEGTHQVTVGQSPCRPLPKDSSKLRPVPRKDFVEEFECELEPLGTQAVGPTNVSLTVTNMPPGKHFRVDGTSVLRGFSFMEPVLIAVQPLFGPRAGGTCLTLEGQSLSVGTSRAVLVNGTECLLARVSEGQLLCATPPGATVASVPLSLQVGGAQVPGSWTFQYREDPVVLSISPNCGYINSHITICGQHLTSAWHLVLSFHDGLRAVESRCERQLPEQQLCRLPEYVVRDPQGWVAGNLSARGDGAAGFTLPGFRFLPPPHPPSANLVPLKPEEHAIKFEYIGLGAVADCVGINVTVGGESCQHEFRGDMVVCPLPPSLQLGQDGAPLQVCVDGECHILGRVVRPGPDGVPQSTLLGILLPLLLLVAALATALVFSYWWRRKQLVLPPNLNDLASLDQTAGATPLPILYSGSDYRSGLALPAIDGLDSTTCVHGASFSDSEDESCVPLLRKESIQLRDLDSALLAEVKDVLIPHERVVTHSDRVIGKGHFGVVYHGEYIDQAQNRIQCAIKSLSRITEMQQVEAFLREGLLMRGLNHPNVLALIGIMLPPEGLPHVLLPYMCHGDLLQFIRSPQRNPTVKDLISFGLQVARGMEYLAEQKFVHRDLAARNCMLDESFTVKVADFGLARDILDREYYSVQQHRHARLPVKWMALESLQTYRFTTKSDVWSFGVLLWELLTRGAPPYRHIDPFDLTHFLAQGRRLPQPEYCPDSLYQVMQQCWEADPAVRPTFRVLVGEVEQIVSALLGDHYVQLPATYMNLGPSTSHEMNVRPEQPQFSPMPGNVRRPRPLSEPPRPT
pKd: −log10 of the molar value.
endpointName: pKd

| smilesString | targetSystem | numericValue |
| --- | --- | --- |
| COc1cc2ncnc(Oc3cccc(NC(=O)Nc4cc(C(C)(C)C(F)(F)F)on4)c3)c2cc1OC | MST1R (human) (UniProt Q04912) | 5.19 |
